Test system: huPPARα
Assay: Cotransfection assay in CV-1 cells, luciferase reporter
Format: cell-based, human
Settings: GAL4 chimeric system, relative to PPARα agonist reference molecule
Class (by huPPARα CTF Efficacy) -- small value (below 40%), mid value (40% to below 60%), large value (60% or more)

Cc1cccc(OC(C)(Cc2ccc(OCCc3nc(-c4cccc(-c5ccccc5)c4)oc3C)cc2)C(=O)O)c1 (stereo not shown) [Example 48]    mid value
Cc1oc(-c2cccc(-c3ccccc3)c2)nc1CCOc1ccc(CC(C)(Oc2ccc(F)cc2)C(=O)O)cc1 (stereo not shown) [Example 51]    mid value
Cc1oc(-c2cccc(-c3ccccc3)c2)nc1CCOc1ccc(CC(C)(Oc2ccc3c(c2)OCO3)C(=O)O)cc1 (stereo not shown) [Example 58]    mid value
COc1cc(CC(C)(Oc2ccccc2)C(=O)O)ccc1OCCc1nc(-c2cccc(-c3ccccc3)c2)oc1C (stereo not shown) [Example 8]    mid value
Cc1oc(-c2ccc(-c3cccs3)cc2)nc1CCOc1ccc(CC(C)(Oc2ccc(C(C)(C)C)cc2)C(=O)O)cc1 (stereo not shown) [Example 17]    large value
CC(C)(Oc1ccc(C(=O)c2ccc(Cl)cc2)cc1)C(=O)O [Fenofibric acid, reference compound]    small value
Cc1oc(-c2cccc(-c3cccs3)c2)nc1CCOc1ccc(CC(C)(Oc2ccc(Cl)cc2)C(=O)O)cc1 (stereo not shown) [Example 26]    mid value
Cc1oc(-c2ccc(-c3ccccc3)cc2)nc1CCOc1ccc(CC(C)(Oc2ccc(C(C)(C)C)cc2)C(=O)O)cc1 (stereo not shown) [Example 15]    large value
CCC(Cc1ccc(OCCc2nc(-c3cccc(-c4ccccc4)c3)oc2C)cc1)(Oc1ccccc1)C(=O)O (stereo not shown) [Example 41]    mid value
Cc1c(C)c2c(c(C)c1O)CCC(C)(COc1ccc(CC3SC(=O)NC3=O)cc1)O2 (stereo not shown) [Troglitazone, reference compound]    small value
CCC(Cc1ccc(OCCc2nc(-c3cccc(-c4cccs4)c3)oc2C)cc1)(Oc1ccccc1)C(=O)O (stereo not shown) [Example 42]    mid value
Cc1oc(-c2cccc(-c3ccc(F)cc3)c2)nc1CCOc1ccc(CC(C)(Oc2ccccc2)C(=O)O)cc1 (stereo not shown) [Example 4]    small value
Cc1oc(-c2ccc(-c3cccs3)cc2)nc1CCOc1ccc(CC(C)(Oc2cccc(F)c2)C(=O)O)cc1 (stereo not shown) [Example 22]    large value
COc1cccc(OC(C)(Cc2ccc(OCCc3nc(-c4ccc(-c5ccccc5)cc4)oc3C)cc2)C(=O)O)c1 (stereo not shown) [Example 56]    large value
